Give ICW Avg for every item shown.
target: EGFR (Homo sapiens, UniProt P00533); construct: host or cells: A431; experiment: EGFR in-cell Western (ICW) screening protocol (EGFR inhibition assay); format: cell-based; set-up: unit not given here; conditions: ICW assay, average of runs 1 and 2
Sequence (P00533 25-1210): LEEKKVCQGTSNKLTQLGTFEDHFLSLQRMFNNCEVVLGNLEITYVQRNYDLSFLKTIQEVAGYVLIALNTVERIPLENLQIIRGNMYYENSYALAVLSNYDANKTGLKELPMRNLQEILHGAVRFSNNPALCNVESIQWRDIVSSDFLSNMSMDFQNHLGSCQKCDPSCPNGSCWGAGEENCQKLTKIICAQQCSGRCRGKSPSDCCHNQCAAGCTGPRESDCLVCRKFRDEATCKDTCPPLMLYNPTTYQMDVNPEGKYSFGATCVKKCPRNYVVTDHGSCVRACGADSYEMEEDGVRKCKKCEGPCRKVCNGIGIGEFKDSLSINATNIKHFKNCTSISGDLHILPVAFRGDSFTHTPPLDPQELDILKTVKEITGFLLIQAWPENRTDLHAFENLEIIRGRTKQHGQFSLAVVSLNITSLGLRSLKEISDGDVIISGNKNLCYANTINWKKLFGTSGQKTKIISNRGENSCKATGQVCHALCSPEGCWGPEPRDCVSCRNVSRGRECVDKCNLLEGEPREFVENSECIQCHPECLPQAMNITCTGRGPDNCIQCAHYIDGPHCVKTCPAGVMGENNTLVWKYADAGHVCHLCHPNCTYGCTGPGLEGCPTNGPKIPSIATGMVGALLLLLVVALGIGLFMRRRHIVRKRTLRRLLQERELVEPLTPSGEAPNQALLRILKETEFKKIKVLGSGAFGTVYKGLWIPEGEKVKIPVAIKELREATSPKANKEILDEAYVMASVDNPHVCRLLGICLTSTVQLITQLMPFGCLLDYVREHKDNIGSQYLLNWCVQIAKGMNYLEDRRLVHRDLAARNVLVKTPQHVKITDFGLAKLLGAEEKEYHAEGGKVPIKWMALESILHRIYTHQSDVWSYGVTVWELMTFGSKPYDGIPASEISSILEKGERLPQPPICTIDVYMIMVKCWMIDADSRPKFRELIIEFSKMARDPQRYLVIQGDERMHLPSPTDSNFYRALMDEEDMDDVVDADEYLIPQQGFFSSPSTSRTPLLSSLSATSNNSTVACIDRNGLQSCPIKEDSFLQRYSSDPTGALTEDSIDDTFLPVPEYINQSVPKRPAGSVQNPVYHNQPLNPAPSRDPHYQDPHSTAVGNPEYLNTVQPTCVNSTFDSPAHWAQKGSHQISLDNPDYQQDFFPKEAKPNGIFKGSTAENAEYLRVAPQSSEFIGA
Structures can show the parent of a compound that is named as a salt.
Format: numeric value only, no unit, no commentary.

The recorded ICW Avg for entry COc1cccc2c(C)nc(Nc3nc(-c4ccccc4)cc(=O)[nH]3)nc12 [compound 11741] equals 68.05

Lab book: ICW Avg of COc1ccc2nc(Nc3nc(C)c(Cc4cccc(Cl)c4)c(=O)[nH]3)nc(C)c2c1 [11742 + TFA] noted as 35.74

Looking up CCCc1c[nH]c(Nc2nc(-c3ccccc3)c3cc(Cl)ccc3n2)nc1=O [12660 + TFA] , I found its ICW Avg recorded as 61.63

Notebook: Cc1cc(C)c2nc(Nc3nc(CSc4nnc(C)s4)cc(=O)[nH]3)nc(C)c2c1 [compound 11476] , ICW Avg read as 33.91

Noted for CCCCCC1C(=O)N=C(Nc2nc(C)c3ccc(CC)cc3n2)N=C1C (centres unmarked) [12214 + TFA] : its ICW Avg reads 34.91

ICW Avg recorded for this compound, Cc1ccc(C2CC(=O)c3cnc(Nc4nc(C)c5cc(C)c(C)cc5n4)nc3C2)cc1 (centres unmarked) [11670 + TFA] , is 25.27

The value of ICW Avg measured for the compound Cc1ccc(C2CC(=O)c3cnc(Nc4nc(C)c5cccc(C)c5n4)nc3C2)cc1 (centres unmarked) [11673 + TFA] turned out to be 25.35

Record summary for Cc1ccc2nc(Nc3nc(C)cc(C(F)(F)F)n3)nc(C)c2c1 [11816 + TFA] : reported ICW Avg = 26.67

----------
Biological target: EGFR (Homo sapiens, UniProt P00533)
Construct: host or cells: A431
Assay: EGFR in-cell Western (ICW) screening protocol (EGFR inhibition assay)
Format: cell-based
Design: unit not given here
Details: ICW assay, average of runs 1 and 2
Description: The following example describes general EGFR in-cell Western (ICW) screening protocol. Methods are according to Chen et al. (2005) Analytical Biochemistry 338, 136-142 (incorporated herein by reference), except as otherwise noted. Cell Plates: A431 cells (ATCC # CRL-1555) were grown in Dulbecco's Modified Eagle Medium (DMEM; ATCC #30-2002) supplemented with 10% fetal bovine serum, 105 units/ml pen/strep (Invitrogen #15140155) and 2.1 mM L-glutamine (ATCC #30-2214). […]
Structures can show the parent of a compound that is named as a salt.
# label = yes if ICW Avg >= 30 else no

In: Is ICW Avg for C=CCc1c(C)nc(Nc2nc(C)c3cccc(C)c3n2)[nH]c1=O [12607 + TFA] at or above 30?
Out: yes

In: Item Cc1ccc2c(C)nc(Nc3nc4c(c(-c5ccccc5)n3)CCCC4)nc2c1 with ICW Avg of 30 or above?
Out: no

In: Dear colleague, could you confirm whether Cc1ccnc(Nc2nc(-c3ccccc3)c3cc(Cl)ccc3n2)n1 has ICW Avg at or above 30?
Out: yes

In: Decide: ICW Avg of CCOc1ccc2nc(Nc3nc(=O)cc(-c4ccccc4)[nH]3)nc(C)c2c1 [12608 + TFA] >= 30?
Out: yes

In: For this compound, is measured ICW Avg 30 or higher? CCc1ccc2nc(Nc3ncc4c(n3)CC(c3cccc(Cl)c3)CC4=O)nc(C)c2c1 (stereo not drawn) [11680 + TFA]
Out: no

In: # bool: ICW Avg of Cc1ccc2nc(Nc3nc(C(C)C)cc(=O)[nH]3)nc(C)c2c1 [12741 + TFA] >= 30
Out: yes

In: Is it the case that CCOc1cccc2c(C)nc(Nc3nc(-c4ccccc4)cc(=O)[nH]3)nc12 has ICW Avg reaching or exceeding 30?
Out: yes

In: Can COc1cccc2c(C)nc(Nc3nc4c(c(=O)[nH]3)CCCC4)nc12 [11484 + TFA] be said to have ICW Avg at or above 30?
Out: yes

In: Kindly determine if ICW Avg recorded for Cc1nc(Nc2nc(C)c3cccc(C)c3n2)[nH]c(=O)c1Cc1ccccc1 [12611 + TFA] is above or exactly 30.
Out: yes

In: Is reported ICW Avg greater than or equal to 30 here: COc1cccc2c(C)nc(Nc3nc(C)c(C)c(=O)[nH]3)nc12 [12723 + TFA]
Out: yes

In: Could you please find out whether CCOc1ccc2nc(Nc3ncc4c(n3)CC(c3ccco3)CC4=O)nc(C)c2c1 (stereo not drawn) [11674 + TFA] has ICW Avg that meets 30 or exceeds it?
Out: no

In: Hi team, for CCCc1c(C)nc(Nc2nc(C)c3cccc(OC)c3n2)[nH]c1=O [11773 + TFA] , is the recorded ICW Avg at or above 30?
Out: yes

In: Dear colleague, could you confirm whether CCc1ccc2c(C)nc(Nc3nc(C)c(CCC(C)C)c(=O)[nH]3)nc2c1 [11771 + TFA] has ICW Avg at or above 30?
Out: yes

In: ICW Avg >= 30 for FC(F)(F)c1cc(C(F)(F)F)nc(Nc2nc(-c3ccccc3)c3cc(Cl)ccc3n2)n1 ?
Out: yes

In: Does C=CCc1c(C)nc(Nc2nc(C)c3cccc(OC)c3n2)[nH]c1=O have a reported ICW Avg of at least 30?
Out: yes

In: Hi team, for Cc1cc(C)c2nc(Nc3nc(=O)c(C)c(C)[nH]3)nc(C)c2c1 [12645 + TFA] , is the recorded ICW Avg at or above 30?
Out: yes
